Observed pIC50 for WEE1 kinase (Homo sapiens), reported per entry below.
In simple prose, pIC50 is minus the logarithm base ten of a concentration in moles per litre.

The value of pIC50 measured for the compound CN1CCN(c2ccc(Nc3ncc4c(F)c(C5CC5)n(-c5cccc(N=S(C)(C)=O)n5)c4n3)cc2)CC1CO (stereo not drawn) turned out to be 9.24

The value of pIC50 measured for the compound CN1CCN(c2ccc(Nc3ncc4c(F)c(C5CC5)n(-c5cccc(N=S(C)(C)=O)n5)c4n3)cn2)CC1 turned out to be 8.97

The value of pIC50 measured for the compound Cc1cc2cnc(Nc3ccc(N4CCN(C)CC4)cc3)nc2n1-c1cccc(C(C)(C)O)n1 turned out to be 9.22

* * *

Assign IC50 to each entry below.
# Tested on: Human non-small cell lung cancer cells NCI-H1299
# PROCEDURE_SUMMARY: NCI-H1299 cell proliferation inhibition (CellTiter-Glo)
# Assay type: cell-based
# PROTOCOL_CONDITIONS: Homo sapiens, 72 h, cultured 3 days, table head NCI-H1975, method NCI-H1299
Kindly answer with a numeric value in nM, unit omitted.

The value of IC50 measured for the compound CCc1cc2cnc(Nc3ccc(N4CCC(N5CCN(C)CC5)CC4)cc3)nc2n1-c1cccc(N=S(C)(C)=O)n1 [Example 154] turned out to be 69

The value of IC50 measured for the compound C=C(C)c1cc2cnc(Nc3ccc(N4CCN(C)CC4)cc3)nc2n1-c1cccc(N=S(C)(C)=O)n1 [Example 135] turned out to be 74

The value of IC50 measured for the compound Cc1cc2cnc(Nc3ccc(N4CCC5(CCN(C)CC5)CC4)cc3)nc2n1-c1cccc(C(C)(C)O)n1 [Example 147] turned out to be 85
